Source of measurements: ChEMBL document CHEMBL1909046

- SYSTEM TESTED: 5-hydroxytryptamine receptor 1A (Rattus norvegicus, UniProt P19327); note: in other assays of this panel Not Active means under 50% inhibition at 10 µM
- Sequence (P19327 whole entry): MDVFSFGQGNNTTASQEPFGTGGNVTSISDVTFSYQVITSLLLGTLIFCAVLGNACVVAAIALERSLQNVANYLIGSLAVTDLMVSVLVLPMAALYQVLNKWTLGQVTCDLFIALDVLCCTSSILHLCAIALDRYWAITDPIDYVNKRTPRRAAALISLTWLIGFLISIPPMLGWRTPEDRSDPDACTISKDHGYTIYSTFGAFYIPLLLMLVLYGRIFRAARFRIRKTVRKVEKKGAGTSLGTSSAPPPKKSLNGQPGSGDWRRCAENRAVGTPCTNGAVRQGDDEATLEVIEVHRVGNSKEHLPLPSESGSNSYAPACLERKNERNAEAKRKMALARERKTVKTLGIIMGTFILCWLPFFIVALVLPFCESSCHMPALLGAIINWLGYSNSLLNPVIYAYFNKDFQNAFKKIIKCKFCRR
- Format: cell membranes, CHO-K1, Membrane
- TEST PARAMETERS: cho-k1

{"COMPOUND": "O=C(O)c1cccnc1", "IC50": "Not Active"}
{"COMPOUND": "COc1ccc(CN2CCNCC2)c(OC)c1OC", "IC50": "Not Active"}
{"COMPOUND": "C/C=C\\c1ccc(O)c(OC)c1", "IC50": "Not Active"}
{"COMPOUND": "O=c1cc(-c2ccccc2)oc2ccc3ccccc3c12", "IC50": "Not Active"}
{"COMPOUND": "C=C(CC)C(=O)c1ccc(OCC(=O)O)c(Cl)c1Cl", "IC50": "Not Active"}
{"COMPOUND": "O=P1(N(CCCl)CCCl)NCCCO1 (stereo not drawn) [CYCLOPHOSPHAMIDE ANHYDROUS]", "IC50": "Not Active"}
{"COMPOUND": "C[C@H]([C@](O)(Cn1cncn1)c1ccc(F)cc1F)S(C)(=O)=O", "IC50": "Not Active"}
{"COMPOUND": "O=P(O)(O)C(O)(Cc1cccnc1)P(=O)(O)O", "IC50": "Not Active"}
{"COMPOUND": "COc1ccccc1OCC(O)COC(N)=O (stereo not drawn)", "IC50": "Not Active"}
{"COMPOUND": "COc1ncnc(NS(=O)(=O)c2ccc(N)cc2)c1OC", "IC50": "Not Active"}
{"COMPOUND": "Nc1nc2c(c(=O)[nH]1)N(C=O)C(CNc1ccc(C(=O)N[C@@H](CCC(=O)O)C(=O)O)cc1)CN2 (stereo partly drawn)", "IC50": "Not Active"}
{"COMPOUND": "CCC(=O)O[C@H]1[C@H](O[C@@H]2[C@@H](C)[C@H](O[C@H]3C[C@@](C)(OC)[C@@H](O)[C@H](C)O3)[C@@H](C)C(=O)O[C@H](CC)[C@@](C)(O)[C@H](O)[C@@H](C)C(=O)[C@H](C)C[C@@]2(C)O)O[C@H](C)C[C@@H]1N(C)C [ERYTHROMYCIN PROPIONATE]", "IC50": "Not Active"}
{"COMPOUND": "NC[C@H]1O[C@H](O[C@H]2[C@H](O)[C@@H](O[C@H]3O[C@H](CO)[C@@H](O)[C@H](N)[C@H]3O)[C@H](N)C[C@@H]2N)[C@H](O)[C@@H](O)[C@@H]1O", "IC50": "Not Active"}
